Assay: chemical genetic growth profiling, strain panel (AID 1159580);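 also: tested at 20 µM; growth read once vehicle control cultures reached saturation at 30 °C; 1 = growth at the plate median or of vehicle wells; lower values mean less growth of the strain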
Settings: S. cerevisiae deletion strains, growth OD, locus YFL029C, strain CAK1, hits give low values
Among all 5,500 compounds or so, about 2,000 (36%) were called active. About 18% were inconclusive and are not listed. This is one part of the list.
Parameter normalized growth: see the listing below.
Kindly provide the number alone.

Examples from the recorded data:
Molecule: CC1=CC(=O)N(c2ccc(F)c(Cl)c2)C1=O
normalized growth: 0.96
--
Molecule: O=S(=O)(NCc1cc(Cl)cc(Cl)c1)c1cc(C(F)(F)F)cc(C(F)(F)F)c1
normalized growth: 1
--
Molecule: CC1C(c2ccccc2)N(C)C(c2ccccc2)CC1(O)c1ccc(F)cc1 (configuration not stated)
normalized growth: 0.99
--
Molecule: Clc1cc(Cl)cc(C=NCc2ccccc2)c1
normalized growth: 0.961
--
Molecule: COc1ccc(-c2cn3cc(C)ccc3n2)cc1
normalized growth: 0.973

// query Give its normalized growth value. Item: Cc1ccccc1/C=C/c1c[nH]c2ccccc12
// result 0.92

// query Give its normalized growth value. Item: CNC(=O)Sc1c(-c2ccc(Cl)cc2)nn(C(=O)NC)c1SC
// result 0.974
